EXPERIMENTAL TARGET: cyclooxygenase (Homo sapiens)
Construct: incubating a test compound with heparinised human blood; endogenous in cells
Sequence (P23219 24-599): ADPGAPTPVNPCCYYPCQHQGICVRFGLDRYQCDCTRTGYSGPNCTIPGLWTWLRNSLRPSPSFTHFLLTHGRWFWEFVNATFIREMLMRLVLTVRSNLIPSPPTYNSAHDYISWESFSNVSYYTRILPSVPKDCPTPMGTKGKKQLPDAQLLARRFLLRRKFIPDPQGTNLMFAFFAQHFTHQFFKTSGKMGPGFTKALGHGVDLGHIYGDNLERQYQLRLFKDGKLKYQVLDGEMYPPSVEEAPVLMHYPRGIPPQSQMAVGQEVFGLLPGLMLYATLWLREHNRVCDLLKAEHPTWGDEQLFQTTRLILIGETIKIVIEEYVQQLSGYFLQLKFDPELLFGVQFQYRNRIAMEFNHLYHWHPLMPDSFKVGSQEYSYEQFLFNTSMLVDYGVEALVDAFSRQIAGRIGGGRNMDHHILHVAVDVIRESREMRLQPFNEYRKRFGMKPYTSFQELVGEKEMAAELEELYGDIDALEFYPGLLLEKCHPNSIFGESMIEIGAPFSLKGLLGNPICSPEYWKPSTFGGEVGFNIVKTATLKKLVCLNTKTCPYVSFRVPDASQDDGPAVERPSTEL
PROCEDURE DETAILS: heparinised human blood challenged with calcium ionophore A23187, TxB2 radioimmunoassay (test b)
MEASUREMENT CONDITIONS: A23187 challenge

| COMPOUND | IC50 |
| --- | --- |
| CCC(OC)(c1cccc(OCC#Cc2ccccn2)c1)c1nccs1 (stereo not shown) | > 40 µM |
